Form field: TGI (one value per entry).
- Tested on: M14 melanoma
- PROTOCOL SUMMARY: NCI tumour cell line growth inhibition, 48 h
Dear colleague, please return just the value in µM, with no unit written.

Please review the following examples before continuing.
C[C@@H]1N=C(c2ccc(Br)cc2)Nc2nc3ccccn3c2C1=O; 48.2
O=C(C[n+]1ccccc1)N=N/C(C(=O)Nc1c(Cl)c(O)c2ccccc2c1O)=C1/C(=O)Oc2cc(O)ccc2C1=O; 14.7

*Q* So what does the record say about TGI for NC(=O)C(c1ccccc1)N1OC2C(=O)N(c3cccc4ccccc34)C(=O)C2C1c1c2ccccc2c(Cl)c2ccccc12 (configuration not stated) ?
*A* 15.8

====

Form field: TGI (one value per entry).
- Tested on: NCI/ADR-RES ovarian
- PROTOCOL SUMMARY: NCI tumour cell line growth inhibition, 48 h

Please review the following examples before continuing.
CCOC(=O)C1C(c2ccc(OC)cc2)c2c([nH][nH]c2=O)CC1(O)OCC (stereo unspecified); > 100 µM
C[C@H]1C[C@H](C)c2ccccc2N(C)C1=Nc1ccccc1; > 100 µM
NC(=N\N=C/c1cccc([N+](=O)[O-])c1)/C(N)=N\N=C/c1cccc([N+](=O)[O-])c1; > 100 µM
C=C(Br)CN(C(C)=O)C1CCCCC1; > 100 µM
CCOP(=O)(OCC)c1ccc(=O)[nH]c1-c1cccs1; > 100 µM
O=C(Nc1cc[c]([Sb](=[O])([OH])[OH])cc1)c1ccccc1; > 100 µM

*Q* So what does the record say about TGI for O=C(C[n+]1ccccc1)N=N/C(C(=O)Nc1c(Cl)c(O)c2ccccc2c1O)=C1/C(=O)Oc2cc(O)ccc2C1=O ?
*A* 85.1 µM

*Q* So what does the record say about TGI for Cn1c(NS(=O)(=O)c2ccccc2)nc2ccccc21 ?
*A* > 100 µM

*Q* So what does the record say about TGI for CCOc1ccc(Nc2nc(-c3ccc4c(c3)NC(=O)CO4)cs2)cc1 ?
*A* > 100 µM

*Q* So what does the record say about TGI for CCCCCC(CO)C(O)(C(F)(F)F)C(F)(F)F (stereo unspecified) ?
*A* > 10 µM

====

Form field: GI50 (one value per entry).
- Tested on: 786-0 renal
- PROTOCOL SUMMARY: NCI tumour cell line growth inhibition, 48 h

Please review the following examples before continuing.
COc1ccc(-c2nc3ncccn3c2/C=C/C(=O)c2cc(OC)c(OC)c(OC)c2)cc1; 1.84 µM
O=C(CC12CC3CC(CC(C3)C1)C2)NCCOCCOCCOCCNC(=O)c1cc2c(o1)C(=O)c1ccccc1C2=O; 2.55 µM
CCC[CH2][Sn]([CH2]CCC)([O]C(=O)C(N)CSC)[O]C(=O)C(N)CSC (configuration not stated); 8.14 µM
O=C([O][Hg][CH2]C1COCC([CH2][Hg][O]C(=O)c2ccccc2)O1)c1ccccc1 (configuration not stated); 16.8 µM
Cc1ccc(-c2nc(N)nc3c2nnn3Cc2cccc(CO[C@H]3CCOC3)n2)o1; > 100 µM
Cc1cc(I)cc(CN(C)CCN2CCCC2)c1O; 21.1 µM

*Q* So what does the record say about GI50 for Cc1cc(N2CCN(c3ccnc4cc(Cl)ccc34)CC2)nc(NC2CCCCC2)n1 ?
*A* 1.57 µM

*Q* So what does the record say about GI50 for CC(C)CNc1nc(-c2ccccc2)nc2ccccc12 ?
*A* 14.4 µM

====

- System: HCC-2998 colon
- PROTOCOL SUMMARY: NCI tumour cell line growth inhibition, 48 h
Form field: TGI (one value per entry).

O=CN1N=C(c2ccc(Cl)cc2)CC1c1cccc(Nc2ccnc3cc(Cl)ccc23)c1 (configuration not stated); 35.3 µM
Cc1ccc(C(=O)C(Cl)C(Cl)c2ccc(C)cc2)cc1 (configuration not stated); 3.92 µM
CCC[CH2][Sn]([CH2]CCC)([O]C(=O)C(N)CSC)[O]C(=O)C(N)CSC (configuration not stated); 30.5 µM

*Q* Identify the measured TGI of CN(C(=O)Cc1ccc(Cl)c(Cl)c1)[C@@H]1CCCC[C@H]1[N+]1(C)CC=CC1 for HCC-2998 colon.
*A* > 100 µM

*Q* Identify the measured TGI of O=[N+]([O-])c1ccc(Nc2nc3ccccc3s2)cc1 for HCC-2998 colon.
*A* 84 µM

*Q* Identify the measured TGI of CN(C)C(=O)Nc1cc2c3c(c1)CCCN3CCC2 for HCC-2998 colon.
*A* > 10 µM

*Q* Identify the measured TGI of COc1ccc2cc(/C=N\NC(=O)Nc3cccc4ccccc34)ccc2c1 for HCC-2998 colon.
*A* > 100 µM

*Q* Identify the measured TGI of Cc1occc1C(=S)Nc1ccc(Cl)c(/C=N/OC(C)C)c1 for HCC-2998 colon.
*A* > 59.6 µM

*Q* Identify the measured TGI of O=C(Nc1ccc(F)cc1)C(=O)C(C1OC(=O)c2ccccc21)[N+](=O)[O-] (configuration not stated) for HCC-2998 colon.
*A* > 100 µM

*Q* Identify the measured TGI of CCOP(=O)(OCC)c1ccc(=O)[nH]c1-c1cccs1 for HCC-2998 colon.
*A* > 100 µM

*Q* Identify the measured TGI of O=C(N/N=C/c1ccccc1Cl)c1ccccc1Nc1ccnc(C(F)(F)F)c1 for HCC-2998 colon.
*A* 7.24 µM

*Q* Identify the measured TGI of O=C1c2c(ccc3c2CCC3)CC12Cc1cc3c(cc1C2)CCC3 for HCC-2998 colon.
*A* > 100 µM

====

Form field: GI50 (one value per entry).
- System: OVCAR-8 ovarian
- PROTOCOL SUMMARY: NCI tumour cell line growth inhibition, 48 h

Please review the following examples before continuing.
O=C([O][Hg][CH2]C1COCC([CH2][Hg][O]C(=O)c2ccccc2)O1)c1ccccc1 (centres undefined); 2030 nM
c1cc(OCCN2CCCCC2)ccc1CNc1ccc2nc(CCC3CCCCC3)[nH]c2c1; 2420 nM
O=C(CC12CC3CC(CC(C3)C1)C2)NCCOCCOCCOCCNC(=O)c1cc2c(o1)C(=O)c1ccccc1C2=O; 1150 nM

Field: next molecule
*Q* So what does the record say about GI50 for CC(C)CNc1nc(-c2ccccc2)nc2ccccc12 ?
*A* 15000 nM

====

Form field: TGI (one value per entry).
- Tested on: MALME-3M melanoma
- PROTOCOL SUMMARY: NCI tumour cell line growth inhibition, 48 h

Please review the following examples before continuing.
O=C(O)C1Cc2c([nH]c3ccccc23)C=N1 (centres undefined); > 100 µM
COC1=C(N2CC2)C(=O)c2nc3n(c2C1=O)CCC3; 0.827 µM
COc1ccc(/C=C2\CCCCCC2=O)cc1; > 100 µM
CC[O-].CC[O-].O=C1C(c2ccccc2)=C([O-])c2ccccc21.O=C1C(c2ccccc2)=C([O-])c2ccccc21.[Ti+4]; > 100 µM

*Q* So what does the record say about TGI for CCCCC(=O)NC1(c2cc3ccccc3s2)CCCCC1 ?
*A* > 100 µM

*Q* So what does the record say about TGI for CN(C(=O)Cc1ccc(Cl)c(Cl)c1)[C@@H]1CCCC[C@H]1[N+]1(C)CC=CC1 ?
*A* > 100 µM

*Q* So what does the record say about TGI for CCOC(=O)C(NC(=O)CC(C)C)(Nc1ccc(S(=O)(=O)Nc2nc(C)cc(C)n2)cc1)C(F)(F)F (centres undefined) ?
*A* > 100 µM

*Q* So what does the record say about TGI for COC(=O)C1[C@@H](C(=O)OC)C12C=Cc1ccccc1C=C2 (some centres undefined) ?
*A* > 100 µM

*Q* So what does the record say about TGI for O=C(c1cccs1)N(C(=S)N1CCN(c2ccccn2)CC1)C1CCCCC1 ?
*A* > 100 µM

*Q* So what does the record say about TGI for CC/C(=C(/CC)c1ccc(O)cc1)c1ccc([O-])cc1.CC/C(=C(/CC)c1ccc(O)cc1)c1ccc([O-])cc1.O=C([CH-]C(=O)c1ccccc1)c1ccccc1.O=C([CH-]C(=O)c1ccccc1)c1ccccc1.[Ti+4] ?
*A* 20.3 µM

*Q* So what does the record say about TGI for Nc1ncn(C2C=C(CO)C(O)C2O)c(=O)n1 (centres undefined) ?
*A* > 100 µM

*Q* So what does the record say about TGI for COc1cccc(-c2nc3sccn3c2-c2ccnc(NCCNS(=O)(=O)c3ccccc3)c2)c1 ?
*A* > 100 µM

*Q* So what does the record say about TGI for O=c1oc2ccccc2c(O)c1C(c1ccc(/C=C/c2ccccc2)cc1)c1c(O)c2ccccc2oc1=O ?
*A* 65.7 µM

*Q* So what does the record say about TGI for O=c1c2cc([N+](=O)[O-])ccc2n2n1Cc1ccccc1C2 ?
*A* > 100 µM

*Q* So what does the record say about TGI for COc1cc2c(cc1OCCCCCCN1CCN(c3ncnc4ccccc34)CC1)N=CC1CCCN1C2=O (centres undefined) ?
*A* 0.376 µM

*Q* So what does the record say about TGI for CC(=O)N(CCc1ccccc1)C(C#N)c1ccc(OCCCCCCCCCCOc2ccc(C(C#N)N(CCc3ccccc3)C(C)=O)cc2)cc1 (centres undefined) ?
*A* > 100 µM

*Q* So what does the record say about TGI for CC1(C)CC(n2cnc(-c3ccc(F)cc3)c2-c2ccnc(N)n2)CC(C)(C)N1 ?
*A* > 25 µM

*Q* So what does the record say about TGI for CSC1=N/C(=C\c2ccco2)C(=O)N1CN1CCCCC1 ?
*A* > 100 µM

*Q* So what does the record say about TGI for COC(=O)C12CC(c3ccccc31)C1C(=O)OC(=O)C12 (centres undefined) ?
*A* > 100 µM
